target: IRAK4 (Homo sapiens (Human), UniProt Q9NWZ3); assay: Western blot assay for assessing degradation of IRAK4 in MCF7 cells; type: cell-based; details: Table 5, IRAK4 degradation, 24 hour incubation, read-out: IRAK4 DC50
Sequence (Q9NWZ3 whole entry): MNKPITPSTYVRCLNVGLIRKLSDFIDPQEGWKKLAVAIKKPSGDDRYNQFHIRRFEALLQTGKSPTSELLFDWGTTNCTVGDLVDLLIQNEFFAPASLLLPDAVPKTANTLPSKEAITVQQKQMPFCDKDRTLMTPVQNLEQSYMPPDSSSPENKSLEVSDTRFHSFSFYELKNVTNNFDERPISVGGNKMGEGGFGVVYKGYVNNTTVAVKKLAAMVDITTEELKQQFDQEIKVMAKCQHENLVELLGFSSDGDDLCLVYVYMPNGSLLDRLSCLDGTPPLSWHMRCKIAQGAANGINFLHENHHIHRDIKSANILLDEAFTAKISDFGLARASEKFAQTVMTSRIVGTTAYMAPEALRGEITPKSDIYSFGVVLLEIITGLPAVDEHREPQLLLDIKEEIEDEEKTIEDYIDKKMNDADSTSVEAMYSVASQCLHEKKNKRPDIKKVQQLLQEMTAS
Parameter: DC50. Scope: all listed entries.

Example entries and their recorded answers appear below.
O=C1CCC(N2C(=O)c3cccc(NCCOCCOCCN4CCN(Cc5ccc6c(c5)nc(NC(=O)c5cccc(C(F)(F)F)c5)n6[C@H]5CC[C@@H](CO)CC5)CC4)c3C2=O)C(=O)N1 (stereo partly shown) [compound 66]; 0.3 to 1 µM
O=C1CCC(N2C(=O)c3ccc(N4CCC(CN5CCN(Cc6ccc7c(c6)nc(NC(=O)c6cccc(C(F)(F)F)c6)n7[C@H]6CC[C@@H](CO)CC6)CC5)CC4)cc3C2=O)C(=O)N1 (stereo partly shown) [compound 9]; < 0.03 µM

Ask | Please report the measured DC50 for COc1cccc(-n2c(NC(=O)c3cccc(C(F)(F)F)c3)nc3cc(CN4CCN(CCOCCOCCOc5ccc6c(c5)C(=O)N(C5CCC(=O)NC5=O)C6=O)CC4)ccc32)c1 (stereo not shown) [compound 54]
Reply | ≥ 1 µM

Ask | Identify measured DC50 associated with O=C1CCC(N2C(=O)c3ccc(OCCOCCN4CCN(Cc5ccc6c(c5)nc(NC(=O)c5cccc(C(F)(F)F)c5)n6[C@H]5CC[C@@H](CO)CC5)CC4)cc3C2=O)C(=O)N1 (stereo partly shown) [compound 2]
Reply | < 0.03 µM

Ask | For Cc1ccc(-n2nc(N3CCN(CCOCCOCCOCCOc4ccc5c(c4)C(=O)N(C4CCC(=O)NC4=O)C5=O)CC3)cc2NC(=O)c2cnn3cccnc23)nc1 (stereo not shown) [compound 26] , write its DC50.
Reply | ≥ 1 µM

Ask | Return the recorded DC50 value; entry: O=C1CCC(N2Cc3cc(OCCOCCN4CCN(Cc5ccc6c(c5)nc(NC(=O)c5cccc(C(F)(F)F)c5)n6[C@H]5CC[C@@H](CO)CC5)CC4)ccc3C2=O)C(=O)N1 (stereo partly shown) [compound 6]
Reply | ≥ 1 µM

Ask | Give the measured DC50 for N#Cc1ccc2ncnc(N[C@H]3CC[C@H](N4CCN(CCOc5ccc6c(c5)C(=O)N(C5CCC(=O)NC5=O)C6=O)CC4)CC3)c2c1 (stereo partly shown) [compound 29]
Reply | ≥ 1 µM

Values were extracted from patent US11065231B2.
